System: LXRa homodimer (NR concentration 270 nM)
Assay: PBM binding z-score (relative to random genomic background probes); higher = stronger binding; sequences stand for … in GC…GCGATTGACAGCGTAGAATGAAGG
Property: PBM binding z-score; scope: individual sequences
property: PBM binding z-score

inputSequence	target	reportedMeasurement
ACACGGAGGACAAAGGTCAGAGCTACGCCAGTGA	LXRa homodimer (NR concentration 270 nM)	1.74
ACCATTAGTTGAGACGAGGGCAACCGATAGGTTG	LXRa homodimer (NR concentration 270 nM)	3.5e-05
CTTGAAAGGTCGTGCTCAGGTGAGTATACCAAAC	LXRa homodimer (NR concentration 270 nM)	0.0529
